Measured protein stability index, listed per entry.
B1: SMTNL2 (parent)
chain: ETAAGKGKGEARARLKRSQSFGVA

Variants of: B1
method notes: protein stability index of a GFP-peptide fusion (GPS, HEK-293T) (PSI 1-6); higher = more stable;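 also: lentivirally expressed fusions sorted by FACS into six bins by GFP to DsRed ratio, PSI derived from sequencing read proportions per bin multiplied by bin number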
measurement conditions: c terminus: a fixed tail appended

# var, protein stability index
rows = [
    ("S18E", 4.36),
    ("R17T", 4.17),
    ("A3M", 4.5),
    ("K8P", 4.54),
    ("F21I", 5.28),
    ("S20D", 4.58),
    ("A24E", 4.71),
    ("E10P", 4.27),
    ("G9T", 3.6),
    ("G22C", 4.84),
    ("K6N", 4.32),
]
